System: 966289-007-R4-J1-PDC complex spheroid viability
Assay: Anticancer human tumor 966289-007-R4-J1-PDC patient-derived pancreatic adenocarcinoma cell line growth inhibition [RAS]
Details: second compound 0.01 µM; first compound 0.316 µM; stronger effect = lower value
Description: RAS pathway inhibitors in Combinations in Complex Spheroids A high-throughput screen of multi-cell type tumor spheroids was designed to identify active combinations of RAS pathway inhibitors and targeted small molecules. Complex spheroids include a stromal component modeled by human endothelial cells (HUVEC) and fibroblasts modeled by human mesenchymal stem cells (MSCs). […] Compounds. […] If the clinical Cmax for an agent had not been determined, the highest concentration tested was 10 microM. […]
Please provide measured viability, T/C for the entries that follow.
Unit % implied. Number only.

// query Query: viability, T/C; subject: C[C@@H](NC(=O)c1ncnc(N)c1Cl)c1ncc(C(=O)Nc2cc(C(F)(F)F)c(Cl)cn2)s1 + C=CC(=O)N1CCN(c2nc(OCC3CCCN3C)nc3c(F)c(-c4nc(N)cc(C)c4C(F)(F)F)c(Cl)cc23)C(C)C1
// result 122

// query viability, T/C for CC(C)NCC(C(=O)N1CCN(c2ncnc3c2C(C)CC3O)CC1)c1ccc(Cl)cc1 (stereo not given) + C=CC(=O)N1CCN(c2nc(OCC3CCCN3C)nc3c(F)c(-c4nc(N)cc(C)c4C(F)(F)F)c(Cl)cc23)C(C)C1 ?
// result 118

// query Param item = CC1(O)CCCC1n1c(=O)c(C(F)F)cc2cnc(NC3CCN(S(C)(=O)=O)CC3)nc21 (stereo not given) + C=CC(=O)N1CCN(c2nc(OCC3CCCN3C)nc3c(F)c(-c4nc(N)cc(C)c4C(F)(F)F)c(Cl)cc23)C(C)C1 ; retrieve measured viability, T/C.
// result 21.4

// query Item under review: Nc1ccn(C2OC(CO)C(O)C2(F)F)c(=O)n1 (stereo not given) + C=CC(=O)N1CCN(c2nc(OCC3CCCN3C)nc3c(F)c(-c4nc(N)cc(C)c4C(F)(F)F)c(Cl)cc23)C(C)C1 . Reported viability, T/C?
// result 1.44

// query Record request: viability, T/C value, item C=CC(=O)Nc1cc(Nc2nccc(-c3cn(C)c4ccccc34)n2)c(OC)cc1N(C)CCN(C)C + C=CC(=O)N1CCN(c2nc(OCC3CCCN3C)nc3c(F)c(-c4nc(N)cc(C)c4C(F)(F)F)c(Cl)cc23)C(C)C1
// result 97.9

###

Record form. Attribute: pIC50. Fill in for each entry.
tested on: 966289-007-R4-J1-PDC complex spheroid viability; test: Anticancer human tumor 966289-007-R4-J1-PDC cell line growth inhibition [RAS]; conditions: curve of first compound; second compound 0.3 µM;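 note: spheroids exposed to agents for one week before readout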
// returns pIC50 (minus log10 of molar concentration), number only

// query I am curious: what pIC50 value has been reported for O=C(c1ccc(F)c(F)c1Nc1ccc(I)cc1F)N1CC(O)([C@@H]2CCCCN2)C1 + CCn1c(-c2cc(N3CCN(C)CC3)cnc2C(C)OC)c2c3cc(ccc31)-c1csc(n1)CC(NC(=O)C1CC1C)C(=O)N1CCCC(N1)C(=O)OCC(C)(C)C2 ?
// result 7.49

// query I would be grateful if you could share the reported pIC50 for Nc1ccn(C2OC(CO)C(O)C2(F)F)c(=O)n1 (configuration not stated) + CCn1c(-c2cccnc2C(C)OC)c2c3cc(ccc31)N1CCOC(CC(NC(=O)C(C(C)C)N(C)C(=O)C3(F)CCN(C(=O)C#CC(C)(C)N(C)C)CC3)C(=O)N3CCCC(N3)C(=O)OCC(C)(C)C2)C1 .
// result 8.28

// query For the compound CCc1c2c(nc3ccc(O)cc13)-c1cc3c(c(=O)n1C2)COC(=O)[C@]3(O)CC + CCn1c(-c2cc(N3CCN(C)CC3)cnc2C(C)OC)c2c3cc(ccc31)-c1csc(n1)CC(NC(=O)C1CC1C)C(=O)N1CCCC(N1)C(=O)OCC(C)(C)C2 , what pIC50 is on record?
// result 8.92

###

system: 966289-007-R4-J1-PDC complex spheroid viability; assay: Anticancer human tumor 966289-007-R4-J1-PDC cell line growth inhibition [RAS]; details: second compound 0.03 µM; first compound 1 µM; stronger effect = lower value;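 note: spheroids exposed to agents for one week before readout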;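 for viability, T/C: percent viability relative to DMSO vehicle control wells as 100%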
Task for the reader: assign each of the following compounds its reported viability, T/C.
Write the answer as a number in %, unit excluded.

// query Query viability, T/C on 966289-007-R4-J1-PDC complex spheroid viability for CC(=O)OC12COC1CC(O)C1(C)C(=O)C(O)C3=C(C)C(OC(=O)C(O)C(NC(=O)OC(C)(C)C)c4ccccc4)CC(O)(C(OC(=O)c4ccccc4)C21)C3(C)C (configuration not stated) + CCn1c(-c2cccnc2C(C)OC)c2c3cc(ccc31)N1CCOC(CC(NC(=O)C(C(C)C)N(C)C(=O)C3(F)CCN(C(=O)C#CC(C)(C)N(C)C)CC3)C(=O)N3CCCC(N3)C(=O)OCC(C)(C)C2)C1
// result 10.5

// query Request body: readout viability, T/C, system 966289-007-R4-J1-PDC complex spheroid viability, query C=CC(=O)N1CCN(c2nc(OCC3CCCN3C)nc3c(F)c(-c4nc(N)cc(C)c4C(F)(F)F)c(Cl)cc23)C(C)C1 (configuration not stated) + CCn1c(-c2cc(N3CCN(C)CC3)cnc2C(C)OC)c2c3cc(ccc31)-c1csc(n1)CC(NC(=O)C1CC1C)C(=O)N1CCCC(N1)C(=O)OCC(C)(C)C2 . Return the value.
// result 87.7

###

Please provide measured viability, T/C for the entries that follow.
tested on: 966289-007-R4-J1-PDC complex spheroid viability; experiment: Anticancer human tumor 966289-007-R4-J1-PDC cell line growth inhibition [RAS]; conditions: second compound 0.000949 µM; first compound 1 µM; stronger effect = lower value;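 note: spheroids exposed to agents for one week before readout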;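 for viability, T/C: percent viability relative to DMSO vehicle control wells as 100%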

// query For the molecule NC1c2ccccc2OC12CCN(c1cnc3c(N4CCCc5ncccc54)n[nH]c3n1)CC2 (centres undefined) + CCn1c(-c2cccnc2C(C)OC)c2c3cc(ccc31)N1CCOC(CC(NC(=O)C(C(C)C)N(C)C(=O)C3(F)CCN(C(=O)C#CC(C)(C)N(C)C)CC3)C(=O)N3CCCC(N3)C(=O)OCC(C)(C)C2)C1 , what viability, T/C is on record?
// result 69.6%

// query # lookup: viability, T/C of C=CC(=O)N1CCN(c2nc(OCC3CCCN3C)nc3c(F)c(-c4nc(N)cc(C)c4C(F)(F)F)c(Cl)cc23)C(C)C1 (centres undefined) + CCn1c(-c2cc(N3CCN(C)CC3)cnc2C(C)OC)c2c3cc(ccc31)-c1csc(n1)CC(NC(=O)C1CC1C)C(=O)N1CCCC(N1)C(=O)OCC(C)(C)C2
// result 94.2%

// query Please give the measured viability, T/C for this molecule: CCN1CCN(Cc2ccc(Nc3ncc(F)c(-c4cc(F)c5nc(C)n(C(C)C)c5c4)n3)nc2)CC1 + CCn1c(-c2cc(N3CCN(C)CC3)cnc2C(C)OC)c2c3cc(ccc31)-c1csc(n1)CC(NC(=O)C1CC1C)C(=O)N1CCCC(N1)C(=O)OCC(C)(C)C2
// result 89.8%

// query Look at this molecule and give its reported viability, T/C. CC(C)NCC(C(=O)N1CCN(c2ncnc3c2C(C)CC3O)CC1)c1ccc(Cl)cc1 (centres undefined) + CCn1c(-c2cc(N3CCN(C)CC3)cnc2C(C)OC)c2c3cc(ccc31)-c1csc(n1)CC(NC(=O)C1CC1C)C(=O)N1CCCC(N1)C(=O)OCC(C)(C)C2
// result 83.1%

###

Give viability, T/C for every item shown.
system: 966289-007-R4-J1-PDC complex spheroid viability; experiment: Anticancer human tumor 966289-007-R4-J1-PDC cell line growth inhibition [RAS]; details: second compound 0.000949 µM; first compound 1 µM; stronger effect = lower value;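 note: spheroids exposed to agents for one week before readout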;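 for viability, T/C: percent viability relative to DMSO vehicle control wells as 100%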
Your answer is read as %, so omit the unit and give the number.

// query Please look up its viability, T/C: CC(=O)OC12COC1CC(O)C1(C)C(=O)C(O)C3=C(C)C(OC(=O)C(O)C(NC(=O)OC(C)(C)C)c4ccccc4)CC(O)(C(OC(=O)c4ccccc4)C21)C3(C)C (stereo not drawn) + CCn1c(-c2cccnc2C(C)OC)c2c3cc(ccc31)N1CCOC(CC(NC(=O)C(C(C)C)N(C)C(=O)C3(F)CCN(C(=O)C#CC(C)(C)N(C)C)CC3)C(=O)N3CCCC(N3)C(=O)OCC(C)(C)C2)C1
// result 14.2

// query What does the record list as viability, T/C for O=C(c1ccc(F)c(F)c1Nc1ccc(I)cc1F)N1CC(O)([C@@H]2CCCCN2)C1 + CCn1c(-c2cc(N3CCN(C)CC3)cnc2C(C)OC)c2c3cc(ccc31)-c1csc(n1)CC(NC(=O)C1CC1C)C(=O)N1CCCC(N1)C(=O)OCC(C)(C)C2 ?
// result 36.2

// query Tell me the measured viability, T/C of C=CC(=O)Nc1cc(Nc2nccc(-c3cn(C)c4ccccc34)n2)c(OC)cc1N(C)CCN(C)C + CCn1c(-c2cc(N3CCN(C)CC3)cnc2C(C)OC)c2c3cc(ccc31)-c1csc(n1)CC(NC(=O)C1CC1C)C(=O)N1CCCC(N1)C(=O)OCC(C)(C)C2 , please.
// result 75.5

// query What viability, T/C value was documented for this molecule, C[C@@H](NC(=O)c1ncnc(N)c1Cl)c1ncc(C(=O)Nc2cc(C(F)(F)F)c(Cl)cn2)s1 + CCn1c(-c2cccnc2C(C)OC)c2c3cc(ccc31)N1CCOC(CC(NC(=O)C(C(C)C)N(C)C(=O)C3(F)CCN(C(=O)C#CC(C)(C)N(C)C)CC3)C(=O)N3CCCC(N3)C(=O)OCC(C)(C)C2)C1 ?
// result 47.5

// query Look up viability, T/C: Nc1ccn(C2OC(CO)C(O)C2(F)F)c(=O)n1 (stereo not drawn) + CCn1c(-c2cccnc2C(C)OC)c2c3cc(ccc31)N1CCOC(CC(NC(=O)C(C(C)C)N(C)C(=O)C3(F)CCN(C(=O)C#CC(C)(C)N(C)C)CC3)C(=O)N3CCCC(N3)C(=O)OCC(C)(C)C2)C1
// result 0.9

// query Would you kindly share the measured viability, T/C for CCC(CC)c1cc(NC2CCC(N)C2)n2nccc2n1 (stereo not drawn) + CCn1c(-c2cc(N3CCN(C)CC3)cnc2C(C)OC)c2c3cc(ccc31)-c1csc(n1)CC(NC(=O)C1CC1C)C(=O)N1CCCC(N1)C(=O)OCC(C)(C)C2 ?
// result 71.5

// query Please report the recorded viability, T/C for CC(Nc1ccc2c(c1)OCCn1cc(N3C(=O)OCC3C(F)F)nc1-2)C(N)=O (stereo not drawn) + CCn1c(-c2cc(N3CCN(C)CC3)cnc2C(C)OC)c2c3cc(ccc31)-c1csc(n1)CC(NC(=O)C1CC1C)C(=O)N1CCCC(N1)C(=O)OCC(C)(C)C2 .
// result 92.2

// query # input molecule: CC(=O)OC12COC1CC(O)C1(C)C(=O)C(O)C3=C(C)C(OC(=O)C(O)C(NC(=O)OC(C)(C)C)c4ccccc4)CC(O)(C(OC(=O)c4ccccc4)C21)C3(C)C (stereo not drawn) + CCn1c(-c2cc(N3CCN(C)CC3)cnc2C(C)OC)c2c3cc(ccc31)-c1csc(n1)CC(NC(=O)C1CC1C)C(=O)N1CCCC(N1)C(=O)OCC(C)(C)C2 ; wanted: its viability, T/C
// result 21.5
